Attribution: patent US20190315842A1

- Test System: T1, sclerosis autoantigen (Scl-70) (UniProt P11387 2-765, limits assumed)
- T1 sequence (looked up): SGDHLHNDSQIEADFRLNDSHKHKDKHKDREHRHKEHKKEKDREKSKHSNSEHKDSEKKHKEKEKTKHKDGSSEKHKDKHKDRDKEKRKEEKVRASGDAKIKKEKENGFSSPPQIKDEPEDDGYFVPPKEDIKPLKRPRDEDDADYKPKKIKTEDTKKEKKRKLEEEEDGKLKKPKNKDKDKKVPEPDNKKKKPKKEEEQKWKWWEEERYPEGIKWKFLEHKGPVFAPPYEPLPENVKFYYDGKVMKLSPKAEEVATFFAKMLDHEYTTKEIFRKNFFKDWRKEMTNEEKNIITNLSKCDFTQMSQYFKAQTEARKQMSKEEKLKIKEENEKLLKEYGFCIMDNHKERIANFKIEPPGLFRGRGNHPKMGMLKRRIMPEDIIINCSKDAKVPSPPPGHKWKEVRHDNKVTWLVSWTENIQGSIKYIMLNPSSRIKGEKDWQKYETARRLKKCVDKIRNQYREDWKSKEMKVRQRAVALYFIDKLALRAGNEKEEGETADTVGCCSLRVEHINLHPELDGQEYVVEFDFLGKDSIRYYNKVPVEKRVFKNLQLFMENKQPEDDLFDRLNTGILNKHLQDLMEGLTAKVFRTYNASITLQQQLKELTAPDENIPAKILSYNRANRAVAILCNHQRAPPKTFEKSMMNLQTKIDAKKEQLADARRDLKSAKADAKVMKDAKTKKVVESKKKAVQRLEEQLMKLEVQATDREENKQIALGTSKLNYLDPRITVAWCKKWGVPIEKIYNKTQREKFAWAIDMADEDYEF
- Assay Name: AtheNA Multi-Lyte ANA, Ab at 50 ug/ml;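 note: monoclonal antibodies probed against a nuclear autoantigen panel (SSA, SSB, Sm, RNP, Scl-70, Jo-1, dsDNA, CentB, histones), with anti-HIV 4E10 and palivizumab as control antibodies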
Metric: AtheNA signal

| Binder | Metric | Numeric Value |
| --- | --- | --- |
| Ab7957/293i (antibody, IgG1, V domains shown, Recombinant human antibody with IgG1 heavy chain backbone and kappa light chain constant; they begin at LVESGGG and MTQSP; also called Ab7957i; mAb 7957) VH: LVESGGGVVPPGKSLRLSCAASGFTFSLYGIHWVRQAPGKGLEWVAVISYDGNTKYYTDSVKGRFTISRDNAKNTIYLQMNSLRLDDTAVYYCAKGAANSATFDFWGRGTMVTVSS VL: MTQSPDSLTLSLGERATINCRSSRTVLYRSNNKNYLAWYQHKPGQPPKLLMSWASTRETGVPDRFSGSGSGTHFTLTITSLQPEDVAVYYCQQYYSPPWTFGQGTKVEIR | AtheNA signal | 2 |
